# key: entry, value: melting point

Compound: O=[N+]([O-])c1cc(CSc2nc(-c3ccc(F)cc3)no2)cc([N+](=O)[O-])c1
melting point: 150 to 152 °C
--
Compound: O=[N+]([O-])c1cc(CSc2nc(-c3ccc(Cl)c(Cl)c3)no2)cc([N+](=O)[O-])c1
melting point: 176 to 177 °C
--
Compound: Cc1ccc(-c2noc(SCc3cc([N+](=O)[O-])cc([N+](=O)[O-])c3)n2)cc1
melting point: 150 to 152 °C
--
Compound: O=[N+]([O-])c1cc(CCc2nc(-c3ccccc3)no2)cc([N+](=O)[O-])c1
melting point: 120 to 122 °C
--
Compound: O=[N+]([O-])c1cc(CSc2nc(-c3ccccc3Cl)no2)cc([N+](=O)[O-])c1
melting point: 158 to 160 °C
--
Compound: O=[N+]([O-])c1cc(CCc2nc(-c3ccc(F)cc3)no2)cc([N+](=O)[O-])c1
melting point: 169 to 171 °C
--
Compound: O=[N+]([O-])c1cc(CCc2nc(-c3ccc(Cl)c(Cl)c3)no2)cc([N+](=O)[O-])c1
melting point: 154 to 155 °C
--
Compound: O=[N+]([O-])c1cc(CSc2nc(-c3cccc(Cl)c3)no2)cc([N+](=O)[O-])c1
melting point: 133 to 135 °C
--
Compound: COc1ccc(-c2noc(CCc3cc([N+](=O)[O-])cc([N+](=O)[O-])c3)n2)cc1
melting point: 128 to 129 °C
--
Compound: O=[N+]([O-])c1cc(CSc2nc(-c3ccc(Br)cc3)no2)cc([N+](=O)[O-])c1
melting point: 175 to 176 °C
--
Compound: O=[N+]([O-])c1cc(CSc2nc(-c3ccccc3)no2)cc([N+](=O)[O-])c1
melting point: 135 to 136 °C
--
Compound: Cc1ccc(-c2noc(CCc3cc([N+](=O)[O-])cc([N+](=O)[O-])c3)n2)cc1
melting point: 147 to 148 °C
--
Compound: O=[N+]([O-])c1cc(CCc2nc(-c3ccc(Cl)cc3)no2)cc([N+](=O)[O-])c1
melting point: 182 to 183 °C

###

- Tested on: M. kansasii CNCTC My 235/80
- Assay Protocol: microbe, parasite or virus in culture
- Assay type: cell-based
- Condition Details: Mycobacterium kansasii, 168 h, read-out: Minimum inhibiting concentration
# key: entry, value: MIC

Molecule: O=[N+]([O-])c1cc(CSc2nc(-c3ccccc3)no2)cc([N+](=O)[O-])c1 [Compound 1]
Target Desc: M. kansasii CNCTC My 235/80
Sign Qualifier: =
MIC [µM]: 0.5
//
Molecule: O=[N+]([O-])c1cc(CSc2nc(-c3ccccc3Cl)no2)cc([N+](=O)[O-])c1 [Compound 6]
Target Desc: M. kansasii CNCTC My 235/80
Sign Qualifier: =
MIC [µM]: 8
//
Molecule: O=[N+]([O-])c1cc(CCc2nc(-c3ccc(F)cc3)no2)cc([N+](=O)[O-])c1 [Compound 16]
Target Desc: M. kansasii CNCTC My 235/80
Sign Qualifier: >
MIC [µM]: 32
//
Molecule: Cc1ccc(-c2noc(SCc3cc([N+](=O)[O-])cc([N+](=O)[O-])c3)n2)cc1 [Compound 2]
Target Desc: M. kansasii CNCTC My 235/80
Sign Qualifier: =
MIC [µM]: 0.5
//
Molecule: O=[N+]([O-])c1cc(CSc2nc(-c3ccc(Cl)cc3)no2)cc([N+](=O)[O-])c1 [Compound 4]
Target Desc: M. kansasii CNCTC My 235/80
Sign Qualifier: =
MIC [µM]: 1
//
Molecule: O=[N+]([O-])c1cc(CSc2nc(-c3ccc(F)cc3)no2)cc([N+](=O)[O-])c1 [Compound 8]
Target Desc: M. kansasii CNCTC My 235/80
Sign Qualifier: =
MIC [µM]: 0.5
//
Molecule: COc1ccc(-c2noc(CCc3cc([N+](=O)[O-])cc([N+](=O)[O-])c3)n2)cc1 [Compound 13]
Target Desc: M. kansasii CNCTC My 235/80
Sign Qualifier: =
MIC [µM]: 0.5
//
Molecule: O=[N+]([O-])c1cc(CCc2nc(-c3ccc(Cl)c(Cl)c3)no2)cc([N+](=O)[O-])c1 [Compound 15]
Target Desc: M. kansasii CNCTC My 235/80
Sign Qualifier: =
MIC [µM]: 32
//
Molecule: O=[N+]([O-])c1cc(CSc2nc(-c3ccc(Br)cc3)no2)cc([N+](=O)[O-])c1 [Compound 9]
Target Desc: M. kansasii CNCTC My 235/80
Sign Qualifier: =
MIC [µM]: 1
//
Molecule: O=[N+]([O-])c1cc(CCc2nc(-c3ccc(Cl)cc3)no2)cc([N+](=O)[O-])c1 [Compound 14]
Target Desc: M. kansasii CNCTC My 235/80
Sign Qualifier: >
MIC [µM]: 32
//
Molecule: O=[N+]([O-])c1cc(CSc2nc(-c3ccc(Cl)c(Cl)c3)no2)cc([N+](=O)[O-])c1 [Compound 7]
Target Desc: M. kansasii CNCTC My 235/80
Sign Qualifier: =
MIC [µM]: 1

###

# key: entry, value: MIC
- Test system: Mycobacterium tuberculosis CNCTC My 331/88
- Assay Protocol: microbe, parasite or virus in culture
- Format: cell-based
- Condition Details: 336 h, read-out: Minimum inhibiting concentration

Molecule: Cc1ccc(-c2noc(CCc3cc([N+](=O)[O-])cc([N+](=O)[O-])c3)n2)cc1 [Compound 12]
Sign Qualifier: =
MIC [µM]: 2

Molecule: O=[N+]([O-])c1cc(CSc2nc(-c3ccc(Cl)c(Cl)c3)no2)cc([N+](=O)[O-])c1 [Compound 7]
Sign Qualifier: =
MIC [µM]: 1

Molecule: O=[N+]([O-])c1cc(CCc2nc(-c3ccc(Cl)cc3)no2)cc([N+](=O)[O-])c1 [Compound 14]
Sign Qualifier: >
MIC [µM]: 32

Molecule: O=[N+]([O-])c1cc(CCc2nc(-c3ccccc3)no2)cc([N+](=O)[O-])c1 [Compound 11]
Sign Qualifier: =
MIC [µM]: 4

Molecule: O=[N+]([O-])c1cc(CSc2nc(-c3ccc(Cl)cc3)no2)cc([N+](=O)[O-])c1 [Compound 4]
Sign Qualifier: =
MIC [µM]: 0.5

Molecule: O=[N+]([O-])c1cc(CSc2nc(-c3ccc(Br)cc3)no2)cc([N+](=O)[O-])c1 [Compound 9]
Sign Qualifier: =
MIC [µM]: 1

Molecule: Cc1ccc(-c2noc(SCc3cc([N+](=O)[O-])cc([N+](=O)[O-])c3)n2)cc1 [Compound 2]
Sign Qualifier: =
MIC [µM]: 0.5

Molecule: O=[N+]([O-])c1cc(CSc2nc(-c3ccccc3Cl)no2)cc([N+](=O)[O-])c1 [Compound 6]
Sign Qualifier: =
MIC [µM]: 0.5

Molecule: O=[N+]([O-])c1cc(CCc2nc(-c3ccc(Cl)c(Cl)c3)no2)cc([N+](=O)[O-])c1 [Compound 15]
Sign Qualifier: >
MIC [µM]: 32

Molecule: O=[N+]([O-])c1cc(CCc2nc(-c3ccc(F)cc3)no2)cc([N+](=O)[O-])c1 [Compound 16]
Sign Qualifier: >
MIC [µM]: 32

Molecule: COc1ccc(-c2noc(SCc3cc([N+](=O)[O-])cc([N+](=O)[O-])c3)n2)cc1 [Compound 3]
Sign Qualifier: =
MIC [µM]: 0.5

Molecule: O=[N+]([O-])c1cc(CSc2nc(-c3ccc(F)cc3)no2)cc([N+](=O)[O-])c1 [Compound 8]
Sign Qualifier: =
MIC [µM]: 0.25

Molecule: O=[N+]([O-])c1cc(CSc2nc(-c3cccc(Cl)c3)no2)cc([N+](=O)[O-])c1 [Compound 5]
Sign Qualifier: =
MIC [µM]: 0.5

Molecule: O=[N+]([O-])c1cc(CSc2nc(-c3ccccc3)no2)cc([N+](=O)[O-])c1 [Compound 1]
Sign Qualifier: =
MIC [µM]: 0.5

Molecule: COc1ccc(-c2noc(CCc3cc([N+](=O)[O-])cc([N+](=O)[O-])c3)n2)cc1 [Compound 13]
Sign Qualifier: =
MIC [µM]: 0.5

###

# key: entry, value: MIC
- Tested on: M. kansasii CNCTC My 235/80
- Assay Protocol: microbe, parasite or virus in culture
- Assay type: cell-based
- Condition Details: Mycobacterium kansasii, 168 h, read-out: Minimum inhibiting concentration

Compound: O=[N+]([O-])c1cc(CSc2nc(-c3cccc(Cl)c3)no2)cc([N+](=O)[O-])c1
MIC / µM: 2
--
Compound: COc1ccc(-c2noc(SCc3cc([N+](=O)[O-])cc([N+](=O)[O-])c3)n2)cc1
MIC / µM: 0.5
--
Compound: O=[N+]([O-])c1cc(CCc2nc(-c3ccccc3)no2)cc([N+](=O)[O-])c1
MIC / µM: 2
--
Compound: Cc1ccc(-c2noc(CCc3cc([N+](=O)[O-])cc([N+](=O)[O-])c3)n2)cc1
MIC / µM: 2
